# measurement.target: daboiatoxin, the major PLA2 toxin of Daboia russelli siamensis venom (Daboia siamensis, UniProt Q7T2R1+Q7T3T5)
# Sequence (Q7T2R1 17-138 limits assumed): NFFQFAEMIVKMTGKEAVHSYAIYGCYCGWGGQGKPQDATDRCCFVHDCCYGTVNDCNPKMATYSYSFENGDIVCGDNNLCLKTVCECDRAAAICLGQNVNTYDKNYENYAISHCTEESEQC
# Sequence (Q7T3T5 9-130 limits assumed): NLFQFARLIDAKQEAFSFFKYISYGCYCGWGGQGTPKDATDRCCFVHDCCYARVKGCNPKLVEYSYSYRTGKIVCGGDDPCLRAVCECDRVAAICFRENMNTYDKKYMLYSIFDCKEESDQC
# Type: biochemical
Where no end group is shown, it is not given here.
Classification field: enter y for PLA2 inhibition (%) values not below 20%, n for values below it.

Input line: Is PLA2 inhibition (%) for PLPGLPLSLQNGLYK [PP-0008] at or above 20%?
Output line: n

Input line: Is PLA2 inhibition (%) for GAFGIFTEDSTEK [PP-0005] at or above 20%?
Output line: n

Input line: Is PLA2 inhibition (%) for PGLPLSLQNG [P-0029] at or above 20%?
Output line: y

Input line: Is PLA2 inhibition (%) for PLPGLPLSLQNGLYCPGAFGIF [PP-0036] at or above 20%?
Output line: n

Input line: Is PLA2 inhibition (%) for LSLQNGLYK [PP-0006] at or above 20%?
Output line: y

Input line: Is PLA2 inhibition (%) for PLPGLPLSKP [P-0009] at or above 20%?
Output line: y
